experimentalTarget: T1, Human Galectin-3 (Gal3) protein (human, UniProt P17931 1-250)
T1 construct: also called hGal3; rhGal-3
T1 sequence (P17931 whole entry): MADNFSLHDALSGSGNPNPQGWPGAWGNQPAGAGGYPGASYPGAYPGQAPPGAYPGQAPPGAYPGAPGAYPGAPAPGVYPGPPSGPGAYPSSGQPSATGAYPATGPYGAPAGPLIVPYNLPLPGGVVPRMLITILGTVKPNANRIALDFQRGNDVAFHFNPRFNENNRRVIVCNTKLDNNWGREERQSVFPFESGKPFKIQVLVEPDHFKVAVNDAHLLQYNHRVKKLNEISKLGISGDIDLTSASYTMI
experimentalProtocol: competition ELISA, hGal3 coated; competitor: biotinylated aggregated alpha-synuclein
measurementKind: blocking efficacy

| binder | reported |
| --- | --- |
| 20D11.2C6-hIgG4(S228P) (antibody, V domains shown, also called QC200083) VH: EVQLQQSGPELVKPGASVKISCKASGYTFTDFYINWVKQSHGKSLEWIGDINPKNGGINYNPKFKIKATLTVDKSSSTSYMDLRGLTSEDSAVYYCTSGYGFPYWGQGTLVTVSA VL: DIQMNQSPSSLSASLGDTITITCRASQNIYIWLSWYQQKPGNIPKLLIYKASNLHTGVPSRFSGSGSGTDFTLTISTLQPEDIATYFCLQGQSYPLTFGAGTKLEMKR | > 70% |

# evaluate next
Ask: So what's the measured blocking efficacy for this one? TB001 (antibody, V domains shown, also called hTB001; IMT001-4-HCLC (TB001)) VH: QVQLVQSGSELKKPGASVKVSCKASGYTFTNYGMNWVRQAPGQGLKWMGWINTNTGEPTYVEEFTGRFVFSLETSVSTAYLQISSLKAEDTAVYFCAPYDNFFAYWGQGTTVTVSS VL: DIVLTQSPLSLPVTPGEPASISCRSSKSLLYKDGKTYLNWFLQKPGQSPQLLIYLMSTHASGVPDRFSGSGSGTDFTLKISRVEAEDVGVYYCQQLVDYPLTFGGGTKLEIK
Reply: > 70%

Values from patent US20250026838A1
